Test: Cell-based activity under Prompt Conditions: Cell-based activity under Prompt Conditions. Rat or human NHE3-mediated Na+-dependent H+ antiport was measured using a modification of the pH sensitive dye method originally reported by Paradiso (PNAS USA. 81:7436-7440, 1984). Opossum kidney (OK) cells were obtained from the ATCC and propagated per their instructions. The rat NHE3 gene (GenBank M85300) or the human NHE3 gene (GenBank NM_004174.1) was introduced into OK cells via electroporation, and cells were seeded into 96 well plates and grown overnight. Medium was aspirated from the wells, cells were washed twice with NaCl-HEPES buffer (100 mM NaCl, 50 mM HEPES, 10 mM glucose, 5 mM KCl, 2 mM CaCl2, 1 mM MgCl2, pH 7.4), then incubated for 30 min at room temperature with NH4Cl-HEPES buffer (20 mM NH4Cl, 80 mM NaCl, 50 mM HEPES, 5 mM KCl, 2 mM CaCl2, 1 mM MgCl2, pH 7.4) containing 5 μM bis(acetoxymethyl) 3,3′-(3′,6′-bis(acetoxymethoxy)-5-((acetoxymethoxy)carbonyl)-3-oxo-3H-spiro[isobenzofuran-1,9′-xanthene]-2′,7′-diyl)dipropanoate (BCECF-AM).Cells were washed twice with Ammonium free, Na+-free HEPES (100 mM choline, 50 mM HEPES, 10 mM glucose, 5 mM KCl, 2 mM CaCl2, 1 mM MgCl2, pH 7.4) and incubated in the same buffer for 10 minutes at room temperature to lower intracellular pH. […] Initial rates were plotted as the average 2 or more replicates, and pIC50 values were estimated using GraphPad Prism.
readout name: IC50 (nM)
# output: bare number, implied unit nM

Summary for this compound, `CN1Cc2c(Cl)cc(Cl)cc2[C@H](c2cccc(S(=O)(=O)NCCOCCOCCNC(=O)CCC(CCC(=O)NCCOCCOCCNS(=O)(=O)c3cccc([C@@H]4CN(C)Cc5c(Cl)cc(Cl)cc54)c3)(CCC(=O)NCCOCCOCCNS(=O)(=O)c3cccc([C@@H]4CN(C)Cc5c(Cl)cc(Cl)cc54)c3)NC(=O)NC(CO)CO)c2)C1` : IC50 is 79.4

Summary for this compound, `CN1Cc2c(Cl)cc(Cl)cc2[C@H](c2cccc(S(=O)(=O)NCCOCCOCCOCCNC(=O)CN(CC(=O)NCCOCCOCCOCCNS(=O)(=O)c3cccc([C@@H]4CN(C)Cc5c(Cl)cc(Cl)cc54)c3)CC(=O)NCCOCCOCCOCCNS(=O)(=O)c3cccc([C@@H]4CN(C)Cc5c(Cl)cc(Cl)cc54)c3)c2)C1` : IC50 is 79.4

----------
Would you kindly list IC50 for each of these compounds?
Assay: Cell-based activity under Prompt Conditions: Cell-based activity under Prompt Conditions. Rat or human NHE3-mediated Na+-dependent H+ antiport was measured using a modification of the pH sensitive dye method originally reported by Paradiso (PNAS USA. 81:7436-7440, 1984). Opossum kidney (OK) cells were obtained from the ATCC and propagated per their instructions. The rat NHE3 gene (GenBank M85300) or the human NHE3 gene (GenBank NM_004174.1) was introduced into OK cells via electroporation, and cells were seeded into 96 well plates and grown overnight. Medium was aspirated from the wells, cells were washed twice with NaCl-HEPES buffer (100 mM NaCl, 50 mM HEPES, 10 mM glucose, 5 mM KCl, 2 mM CaCl2, 1 mM MgCl2, pH 7.4), then incubated for 30 min at room temperature with NH4Cl-HEPES buffer (20 mM NH4Cl, 80 mM NaCl, 50 mM HEPES, 5 mM KCl, 2 mM CaCl2, 1 mM MgCl2, pH 7.4) containing 5 μM bis(acetoxymethyl) 3,3′-(3′,6′-bis(acetoxymethoxy)-5-((acetoxymethoxy)carbonyl)-3-oxo-3H-spiro[isobenzofuran-1,9′-xanthene]-2′,7′-diyl)dipropanoate (BCECF-AM).Cells were washed twice with Ammonium free, Na+-free HEPES (100 mM choline, 50 mM HEPES, 10 mM glucose, 5 mM KCl, 2 mM CaCl2, 1 mM MgCl2, pH 7.4) and incubated in the same buffer for 10 minutes at room temperature to lower intracellular pH. […] Initial rates were plotted as the average 2 or more replicates, and pIC50 values were estimated using GraphPad Prism.
# output: bare number, implied unit nM

Summary for this compound, `C[C@@H](O)[C@H](NC(=O)NC(CCC(=O)NCCOCCOCCNS(=O)(=O)c1cccc([C@@H]2CN(C)Cc3c(Cl)cc(Cl)cc32)c1)(CCC(=O)NCCOCCOCCNS(=O)(=O)c1cccc([C@@H]2CN(C)Cc3c(Cl)cc(Cl)cc32)c1)CCC(=O)NCCOCCOCCNS(=O)(=O)c1cccc([C@@H]2CN(C)Cc3c(Cl)cc(Cl)cc32)c1)C(N)=O` : IC50 is 63.1

Summary for this compound, `CCNC(=O)CN(C)CC(=O)NCCOCCOCCOCCNS(=O)(=O)c1ccc(Oc2c(F)cc(/C=C(\C)C(=O)N=C(N)N)cc2F)cc1` : IC50 is 316

Summary for this compound, CN1Cc2c(Cl)cc(Cl)cc2C(c2cccc(S(=O)(=O)NCCOCCOCCOCCNC(=O)CCN(CCC(=O)NCCOCCOCCOCCNS(=O)(=O)c3cccc([C@@H]4CN(C)Cc5c(Cl)cc(Cl)cc54)c3)CCC(=O)NCCOCCOCCOCCNS(=O)(=O)c3cccc([C@@H]4CN(C)Cc5c(Cl)cc(Cl)cc54)c3)c2)C1 (some centres not stated) : IC50 is 316

Summary for this compound, `CN(C)[C@H]1Cc2c(Cl)cc(Cl)cc2[C@@H]1Oc1ccc(S(=O)(=O)NCCOCCOCCNC(=O)CCC(=O)NCCOCCOCCNS(=O)(=O)c2ccc(O[C@H]3c4cc(Cl)cc(Cl)c4C[C@@H]3N(C)C)cc2)cc1` : IC50 is 3.98

Summary for this compound, `CN1Cc2c(Cl)cc(Cl)cc2[C@H](c2cccc(S(=O)(=O)NCCOCCOCCOCCNC(=O)CN3CCN(c4nc(N5CCN(CC(=O)NCCOCCOCCOCCNS(=O)(=O)c6cccc([C@@H]7CN(C)Cc8c(Cl)cc(Cl)cc87)c6)CC5)nc(N5CCN(CC(=O)NCCOCCOCCOCCNS(=O)(=O)c6cccc([C@@H]7CN(C)Cc8c(Cl)cc(Cl)cc87)c6)CC5)n4)CC3)c2)C1` : IC50 is 251

Summary for this compound, `CN1Cc2c(Cl)cc(Cl)cc2[C@H](c2cccc(S(=O)(=O)N(CCO)CCOCCOCCNC(=O)NCCCN(CCCNC(=O)NCCOCCOCCN(CCO)S(=O)(=O)c3cccc([C@@H]4CN(C)Cc5c(Cl)cc(Cl)cc54)c3)CCCNC(=O)NCCOCCOCCN(CCO)S(=O)(=O)c3cccc([C@@H]4CN(C)Cc5c(Cl)cc(Cl)cc54)c3)c2)C1` : IC50 is 15.8

Summary for this compound, `N=C(N)Nc1nc(-c2ccc(N3CCN(CCOCCOCCOCCNC(=O)NCCOCCOCCNC(=O)NCCOCCOCCOCCN4CCN(c5ccc(-c6nc(NC(=N)N)nc7ccc(Cl)cc67)cc5)CC4)CC3)cc2)c2cc(Cl)ccc2n1` : IC50 is 50.1

Summary for this compound, `O=C(NCCCCNC(=O)NCCOCCOCCNS(=O)(=O)c1ccc(O[C@H]2c3ccccc3C[C@@H]2N2CCCC2)cc1)NCCOCCOCCNS(=O)(=O)c1ccc(O[C@H]2c3ccccc3C[C@@H]2N2CCCC2)cc1` : IC50 is 2.51

Summary for this compound, `CN1Cc2c(Cl)cc(Cl)cc2[C@H](c2cccc(S(=O)(=O)NCCOCCOCCNC(=O)CCN(CCC(=O)NCCOCCOCCNS(=O)(=O)c3cccc([C@@H]4CN(C)Cc5c(Cl)cc(Cl)cc54)c3)CCC(=O)NCCOCCOCCNS(=O)(=O)c3cccc([C@@H]4CN(C)Cc5c(Cl)cc(Cl)cc54)c3)c2)C1` : IC50 is 3160

Summary for this compound, `C/C(=C\c1cc(F)c(Oc2ccc(S(=O)(=O)NCCOCCOCCOCCN)cc2)c(F)c1)C(=O)N=C(N)N` : IC50 is 126

Summary for this compound, CC(O)C(CCC(=O)NCCOCCOCCNS(=O)(=O)c1cccc([C@@H]2CN(C)Cc3c(Cl)cc(Cl)cc32)c1)(CCC(=O)NCCOCCOCCNS(=O)(=O)c1cccc([C@@H]2CN(C)Cc3c(Cl)cc(Cl)cc32)c1)CCC(=O)NCCOCCOCCNS(=O)(=O)c1cccc([C@@H]2CN(C)Cc3c(Cl)cc(Cl)cc32)c1 (some centres not stated) : IC50 is 25.1

Summary for this compound, `CCCCCCCCOCCOCCOCCOCCOCCOC(=O)NCCOCCOCCOCCNS(=O)(=O)c1cccc([C@@H]2CN(C)Cc3c(Cl)cc(Cl)cc32)c1` : IC50 is 251

Summary for this compound, `CN1Cc2c(Cl)cc(Cl)cc2[C@H](c2cccc(S(=O)(=O)NCCOCCOCCNC(=O)CC(O)(CC(=O)NCCOCCOCCNS(=O)(=O)c3cccc([C@@H]4CN(C)Cc5c(Cl)cc(Cl)cc54)c3)C(=O)NCCOCCOCCNS(=O)(=O)c3cccc([C@@H]4CN(C)Cc5c(Cl)cc(Cl)cc54)c3)c2)C1` : IC50 is 1000

Summary for this compound, `CN(CCCNC(=O)NCCOCCOCCOCCNS(=O)(=O)c1cccc([C@@H]2CN(C)Cc3c(Cl)cc(Cl)cc32)c1)CCCNC(=O)NCCOCCOCCOCCNS(=O)(=O)c1cccc([C@@H]2CN(C)Cc3c(Cl)cc(Cl)cc32)c1` : IC50 is 39.8

Summary for this compound, `CN1Cc2c(Cl)cc(Cl)cc2[C@H](c2cccc(S(=O)(=O)NCCOCCOCCNC(=O)CCC(CCC(=O)NCCOCCOCCNS(=O)(=O)c3cccc([C@@H]4CN(C)Cc5c(Cl)cc(Cl)cc54)c3)(CCC(=O)NCCOCCOCCNS(=O)(=O)c3cccc([C@@H]4CN(C)Cc5c(Cl)cc(Cl)cc54)c3)NC(=O)NCCS(=O)(=O)O)c2)C1` : IC50 is 20
